Hello, the source for this data is ChEMBL document CHEMBL5303763, in case you need it.

target: hERG (KCNH2) (Homo sapiens); experiment: HERG_DOFETILIDE Eurofins SafetyScreen44 (BI); details: probe [3H] Dofetilide, compound concentration 10 uM, read-out: % Ctrl
Sequence (Q12809 whole entry): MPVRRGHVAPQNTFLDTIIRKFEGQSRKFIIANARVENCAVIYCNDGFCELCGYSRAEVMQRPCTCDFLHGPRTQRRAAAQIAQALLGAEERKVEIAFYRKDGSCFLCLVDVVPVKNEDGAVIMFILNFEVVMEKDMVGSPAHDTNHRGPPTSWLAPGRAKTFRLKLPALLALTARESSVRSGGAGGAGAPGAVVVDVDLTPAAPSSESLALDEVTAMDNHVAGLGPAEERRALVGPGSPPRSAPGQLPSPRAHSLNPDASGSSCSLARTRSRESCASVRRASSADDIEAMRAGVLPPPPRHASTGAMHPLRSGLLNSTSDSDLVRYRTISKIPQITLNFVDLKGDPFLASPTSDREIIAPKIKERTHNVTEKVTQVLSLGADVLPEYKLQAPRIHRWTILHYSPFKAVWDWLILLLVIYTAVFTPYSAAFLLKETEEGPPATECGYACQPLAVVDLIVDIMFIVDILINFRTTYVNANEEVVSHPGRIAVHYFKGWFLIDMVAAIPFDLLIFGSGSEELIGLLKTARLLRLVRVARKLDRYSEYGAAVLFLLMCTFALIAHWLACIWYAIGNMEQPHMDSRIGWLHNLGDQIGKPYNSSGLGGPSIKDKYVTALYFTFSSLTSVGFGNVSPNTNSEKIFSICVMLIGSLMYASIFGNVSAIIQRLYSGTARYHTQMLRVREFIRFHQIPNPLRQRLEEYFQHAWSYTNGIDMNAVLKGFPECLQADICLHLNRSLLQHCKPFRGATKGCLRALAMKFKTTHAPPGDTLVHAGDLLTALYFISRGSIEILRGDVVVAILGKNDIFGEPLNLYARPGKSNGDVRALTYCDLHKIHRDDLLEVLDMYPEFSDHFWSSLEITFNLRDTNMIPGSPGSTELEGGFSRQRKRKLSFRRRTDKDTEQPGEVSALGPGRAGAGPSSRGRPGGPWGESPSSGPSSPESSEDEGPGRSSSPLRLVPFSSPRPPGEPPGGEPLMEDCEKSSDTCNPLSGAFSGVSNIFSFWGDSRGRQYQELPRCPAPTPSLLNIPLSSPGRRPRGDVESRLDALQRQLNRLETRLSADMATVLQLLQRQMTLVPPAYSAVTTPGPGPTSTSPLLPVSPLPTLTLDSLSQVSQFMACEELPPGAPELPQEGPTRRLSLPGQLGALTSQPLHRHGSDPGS
PROPERTY: activity at 10 µM

CNC(=O)COc1cc2cc(Nc3nc(N4C[C@H](C)C[C@H](C)C4)ncc3Cl)ccc2n(C)c1=O
76% (not active)

Request: Need activity at 10 µM, item C[C@@H]1C[C@H](C)CN(c2ncc(Cl)c(Nc3ccc4c(c3)cc(OC(C)(C)C(=O)O)c(=O)n4C)n2)C1
Result: 95% (not active)

----------
molecular target: L-type Ca2+ channel (dihydropyridine site), Voltage-dependent L-type calcium channel subunit alpha-1C (Rattus norvegicus); test: CA+/DHPSI/R Eurofins SafetyScreen44 (BI); conditions: rat brain, probe [3H](+)PN200-110, compound concentration 10 uM, read-out: % Ctrl
Sequence (P22002 whole entry): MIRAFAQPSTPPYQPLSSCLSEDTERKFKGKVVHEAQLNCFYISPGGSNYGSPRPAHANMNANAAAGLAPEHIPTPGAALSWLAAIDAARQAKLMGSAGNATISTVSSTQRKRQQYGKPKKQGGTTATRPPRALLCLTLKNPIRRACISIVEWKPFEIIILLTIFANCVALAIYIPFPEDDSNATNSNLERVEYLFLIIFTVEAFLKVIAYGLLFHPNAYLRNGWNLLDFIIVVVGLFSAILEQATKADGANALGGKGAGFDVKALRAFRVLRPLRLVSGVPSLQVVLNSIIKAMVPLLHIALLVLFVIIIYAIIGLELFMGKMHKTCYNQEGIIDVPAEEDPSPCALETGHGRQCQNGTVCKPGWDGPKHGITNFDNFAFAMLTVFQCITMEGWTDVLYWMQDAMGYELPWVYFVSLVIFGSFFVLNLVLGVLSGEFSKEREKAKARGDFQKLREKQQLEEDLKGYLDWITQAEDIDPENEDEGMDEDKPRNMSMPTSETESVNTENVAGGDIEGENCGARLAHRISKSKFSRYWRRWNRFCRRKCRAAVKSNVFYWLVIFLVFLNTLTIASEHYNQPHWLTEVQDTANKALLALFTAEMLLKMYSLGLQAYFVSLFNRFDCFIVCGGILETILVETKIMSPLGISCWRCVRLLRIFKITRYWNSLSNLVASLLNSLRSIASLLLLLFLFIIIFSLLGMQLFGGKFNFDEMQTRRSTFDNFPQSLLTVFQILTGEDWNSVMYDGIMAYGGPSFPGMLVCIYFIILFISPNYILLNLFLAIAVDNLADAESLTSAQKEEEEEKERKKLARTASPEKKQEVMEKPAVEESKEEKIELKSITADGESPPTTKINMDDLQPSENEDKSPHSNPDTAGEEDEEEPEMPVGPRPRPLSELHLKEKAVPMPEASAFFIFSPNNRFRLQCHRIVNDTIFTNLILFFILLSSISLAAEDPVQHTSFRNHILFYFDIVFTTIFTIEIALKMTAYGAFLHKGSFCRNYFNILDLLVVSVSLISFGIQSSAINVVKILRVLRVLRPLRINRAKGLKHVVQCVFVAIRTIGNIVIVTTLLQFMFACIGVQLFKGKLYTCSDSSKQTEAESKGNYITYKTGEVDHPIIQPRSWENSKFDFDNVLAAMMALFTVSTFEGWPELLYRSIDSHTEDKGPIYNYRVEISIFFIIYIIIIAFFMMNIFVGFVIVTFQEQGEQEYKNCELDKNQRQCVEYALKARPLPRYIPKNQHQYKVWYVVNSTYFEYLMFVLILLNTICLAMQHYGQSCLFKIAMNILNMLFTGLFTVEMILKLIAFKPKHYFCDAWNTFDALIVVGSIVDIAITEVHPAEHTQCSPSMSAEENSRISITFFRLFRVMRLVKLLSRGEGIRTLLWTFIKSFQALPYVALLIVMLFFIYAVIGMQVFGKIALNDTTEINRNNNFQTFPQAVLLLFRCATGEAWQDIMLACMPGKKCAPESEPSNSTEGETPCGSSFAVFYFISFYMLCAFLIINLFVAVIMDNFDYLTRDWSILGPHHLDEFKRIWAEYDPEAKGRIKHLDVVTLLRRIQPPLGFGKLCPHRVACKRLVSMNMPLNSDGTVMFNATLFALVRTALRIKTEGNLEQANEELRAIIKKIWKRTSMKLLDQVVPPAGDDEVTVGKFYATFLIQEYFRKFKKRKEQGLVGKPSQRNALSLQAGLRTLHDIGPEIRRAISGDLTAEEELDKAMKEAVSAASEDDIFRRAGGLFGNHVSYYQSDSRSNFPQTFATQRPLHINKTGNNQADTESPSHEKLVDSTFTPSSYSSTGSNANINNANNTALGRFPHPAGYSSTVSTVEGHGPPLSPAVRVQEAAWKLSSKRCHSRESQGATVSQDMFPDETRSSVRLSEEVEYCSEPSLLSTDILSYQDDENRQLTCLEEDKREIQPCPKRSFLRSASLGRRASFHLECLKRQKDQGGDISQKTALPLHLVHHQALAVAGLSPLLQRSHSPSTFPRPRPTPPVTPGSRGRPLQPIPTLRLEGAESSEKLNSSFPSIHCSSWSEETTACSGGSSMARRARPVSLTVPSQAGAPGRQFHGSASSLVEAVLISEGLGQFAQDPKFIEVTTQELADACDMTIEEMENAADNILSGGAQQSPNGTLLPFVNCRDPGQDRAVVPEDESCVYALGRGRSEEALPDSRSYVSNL
Parameter activity at 10 µM: see the listing below.

C[C@@H]1C[C@H](C)CN(c2ncc(Cl)c(Nc3ccc4c(c3)cc(OC(C)(C)C(=O)O)c(=O)n4C)n2)C1
104% (not active)

// below: activity at 10 µM requested for another compound
Request: Consider the compound shown here: CNC(=O)COc1cc2cc(Nc3nc(N4C[C@H](C)C[C@H](C)C4)ncc3Cl)ccc2n(C)c1=O What is its recorded activity at 10 µM?
Result: 99% (not active)

----------
test system: Voltage-gated K+ channel Kv1 (Rattus norvegicus); test: K+/VOLT/RA Eurofins SafetyScreen44 (BI); details: rat brain, probe [125I]a-dendrotoxin, read-out: % Ctrl
PROPERTY: activity at 10 µM

Request: Form field - read-out: activity at 10 µM; system: Voltage-gated K+ channel Kv1 (Rattus norvegicus); submitted item: C[C@@H]1C[C@H](C)CN(c2ncc(Cl)c(Nc3ccc4c(c3)cc(OC(C)(C)C(=O)O)c(=O)n4C)n2)C1
Result: 97% (not active)

----------
molecular target: voltage-gated Na+ channel (site 2) (Rattus norvegicus, UniProt F1LQQ7+O08562+O88420+O88457+P04774+P04775+P08104+P15389+P15390+Q62968); test: NA+/SITE2/R Eurofins SafetyScreen44 (BI); format: protein assay; details: rat brain, probe [3H]batrachotoxinin, compound concentration 10 uM, read-out: % Ctrl
# activity at 10 µM per record follows

C[C@@H]1C[C@H](C)CN(c2ncc(Cl)c(Nc3ccc4c(c3)cc(OC(C)(C)C(=O)O)c(=O)n4C)n2)C1
88% (not active)

Could you now consider this next compound?
Request: Using the record for CNC(=O)COc1cc2cc(Nc3nc(N4C[C@H](C)C[C@H](C)C4)ncc3Cl)ccc2n(C)c1=O , report its activity at 10 µM.
Result: 114% (not active)
